Molecular target: MLLT1 YD (Homo sapiens, UniProt Q03111)
Sequence (Q03111 1-138 limits assumed): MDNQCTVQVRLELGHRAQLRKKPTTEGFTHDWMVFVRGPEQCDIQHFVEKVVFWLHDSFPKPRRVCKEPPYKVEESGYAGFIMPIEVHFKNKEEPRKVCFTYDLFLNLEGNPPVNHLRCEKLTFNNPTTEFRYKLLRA
value kind: IC50

// worked examples, IC50 included
[
  {
    "molecule": "C[C@@H]1C[C@H](C)CN(Cc2nc3cc(NC(=O)c4ccc5c(cnn5C)c4)ccc3[nH]2)C1",
    "IC50": "5700 nM"
  },
  {
    "molecule": "Cn1ncc2cc(C(=O)Nc3ccc4[nH]c(CN5C[C@H]6C[C@H]6C5)nc4c3)ccc21",
    "IC50": "1400 nM"
  },
  {
    "molecule": "CCC1CCCN1Cc1nc2cc(NC(=O)c3ccc4c(cnn4C)c3)ccc2[nH]1 (centres unmarked)",
    "IC50": "300 nM"
  },
  {
    "molecule": "O=C(Nc1ccc2[nH]c(CCN3CCCCC3)nc2c1)c1ccc(Cl)cc1",
    "IC50": "> 20000 nM"
  },
  {
    "molecule": "CC1CCN(Cc2nc3cc(NC(=O)c4ccccc4)ccc3[nH]2)CC1",
    "IC50": "> 20000 nM"
  }
]

Write down the reported IC50 of `COC(=O)c1ccc(C(=O)Nc2ccc3[nH]c(CN4CCCCC4)nc3c2)cc1` , test system: MLLT1 YD (Homo sapiens, UniProt Q03111). 2100 nM

Request - read-out IC50 | tested on MLLT1 YD (Homo sapiens, UniProt Q03111) | molecule `COc1ccc(C(=O)Nc2ccc3[nH]c(CN4CCCCC4)nc3c2)cc1` 6400 nM

Give IC50 (MLLT1 YD (Homo sapiens, UniProt Q03111)) of the following molecule: COCC1CCCN1Cc1nc2cc(NC(=O)c3ccc4c(cnn4C)c3)ccc2[nH]1 (centres unmarked) 970 nM

All figures here come from paper PMC6348381.
